This listing pairs compounds with measured Content.
test: Comparative tests for stability of the crystalline form E and other crystalline forms (storage, total impurity and content); type: physicochemical; details: Freezing −20° C., month 6
Numbers only here, please. The scale is %.

compound	Content / %
C[C@@H](O)[C@H]1C(=O)N2C(C(=O)[O-])=C(S[C@@H]3CN[C@H](C(=O)Nc4cccc(C(=O)O)c4)C3)[C@H](C)[C@H]12.[Na+] [Crystalline form B, ertapenem sodium]	99.0
C[C@@H](O)[C@H]1C(=O)N2C(C(=O)[O-])=C(S[C@@H]3CN[C@H](C(=O)Nc4cccc(C(=O)O)c4)C3)[C@H](C)[C@H]12.[Na+] [Crystalline form C, ertapenem sodium]	99.1

Now consider a different compound.
Ask | # input compound: C[C@@H](O)[C@H]1C(=O)N2C(C(=O)[O-])=C(S[C@@H]3CN[C@H](C(=O)Nc4cccc(C(=O)O)c4)C3)[C@H](C)[C@H]12.[Na+] (relative stereo) [Crystalline form E] ; wanted: its Content
Reply | 99.1
